Exercise: for every item that follows, state its recorded selectivity ratio.
# Assay Procedure: Selectivity index, ratio of CC50 for human MT4 cells to EC50 for HIV1 3B
# Assay type: toxicity, cell-based
# Measurement Parameters: read-out: Ratio CC50/EC50

Suppose we examine the molecule Cc1cc(C)cc(Cn2c(=O)cc(N)n(Cc3ccncc3)c2=O)c1 ; what selectivity ratio value has been reported?
> 2860

Suppose we examine the molecule CNc1cc(=O)n(Cc2cc(C)cc(C)c2)c(=O)n1Cc1ccccc1 ; what selectivity ratio value has been reported?
9

Suppose we examine the molecule Cc1cn([C@H]2C[C@H](N=[N+]=[N-])[C@@H](CO)O2)c(=O)[nH]c1=O ; what selectivity ratio value has been reported?
> 2770

Suppose we examine the molecule Cc1cc(C)cc(Cn2c(=O)cc(N=[N+]=[N-])n(Cc3ccncc3)c2=O)c1 ; what selectivity ratio value has been reported?
1160

Suppose we examine the molecule Cc1cc(C)cc(Cn2c(=O)cc(N=[N+]=[N-])n(Cc3ccccn3)c2=O)c1 ; what selectivity ratio value has been reported?
> 457

Suppose we examine the molecule Cc1cc(C)cc(Cn2c(=O)cc(N)n(Cc3ccccn3)c2=O)c1 ; what selectivity ratio value has been reported?
> 443

----------
Exercise: for every item that follows, state its recorded CC50 at 96 h.
# Assay Procedure: Cytotoxicity against human MT4 cells after 4 days by MTT assay
# Format: cell-based
# number only, unit µM dropped from output

Suppose we examine the compound Cc1cc(C)cc(Cn2c(=O)cc(N=[N+]=[N-])n(CC#N)c2=O)c1 ; what CC50 at 96 h value has been reported?
60

Suppose we examine the compound Cc1cc(C)cc(Cn2c(=O)cc(NC3CCCCC3)n(Cc3ccccc3)c2=O)c1 ; what CC50 at 96 h value has been reported?
74

Suppose we examine the compound CNc1cc(=O)n(Cc2cc(C)cc(C)c2)c(=O)n1Cc1ccccc1 ; what CC50 at 96 h value has been reported?
65

Suppose we examine the compound Cc1cc(C)cc(Cn2c(=O)cc(N=[N+]=[N-])n(Cc3ccncc3)c2=O)c1 ; what CC50 at 96 h value has been reported?
59

Suppose we examine the compound Cc1cc(C)cc(Cn2c(=O)cc(N3CCNCC3)n(Cc3ccccc3)c2=O)c1 ; what CC50 at 96 h value has been reported?
16

Suppose we examine the compound Cc1cc(C)cc(Cn2c(=O)cc(N3CCCC3)n(Cc3ccccc3)c2=O)c1 ; what CC50 at 96 h value has been reported?
31

Suppose we examine the compound Cc1cc(C)cc(Cn2c(=O)cc(N(C)C)n(Cc3ccccc3)c2=O)c1 ; what CC50 at 96 h value has been reported?
48

----------
# Assay Procedure: Selectivity index, ratio of CC50 for human MT4 cells to EC50 for HIV1
# Type: toxicity, cell-based
# Measurement Parameters: read-out: Ratio CC50/EC50
Exercise: for every item that follows, state its recorded selectivity ratio.
No unit in the answer, only the number.

Suppose we examine the compound Cc1cc(C)cc(Cn2c(=O)cc(N)n(Cc3ccccc3)c2=O)c1 ; what selectivity ratio value has been reported?
661

Suppose we examine the compound Cc1cc(C)cc(Cn2c(=O)cc(N=[N+]=[N-])n(Cc3ccccc3)c2=O)c1 ; what selectivity ratio value has been reported?
685

----------
# Assay Procedure: Cytotoxicity against human MT4 cells
# Assay type: cell-based
Exercise: for every item that follows, state its recorded CC50.

Suppose we examine the compound Cc1cc(C)cc(Cn2c(=O)cc(N)n(Cc3ccccc3)c2=O)c1 ; what CC50 value has been reported?
45.6 µM

Suppose we examine the compound Cc1cc(C)cc(Cn2c(=O)cc(N=[N+]=[N-])n(Cc3ccccc3)c2=O)c1 ; what CC50 value has been reported?
45.9 µM

----------
# Assay Procedure: Cytotoxicity against human MT4 cells after 4 days by MTT assay
# Type: cell-based
Value Type: CC50 at 96 h

Suppose we examine the compound Cc1cc(C)cc(Cn2c(=O)cc(N3CCOCC3)n(Cc3ccccc3)c2=O)c1 ; what CC50 at 96 h value has been reported?
> 100 µM

Suppose we examine the compound Cc1cc(C)cc(Cn2c(=O)cc(N=[N+]=[N-])n(Cc3ccccn3)c2=O)c1 ; what CC50 at 96 h value has been reported?
> 100 µM

Suppose we examine the compound Cc1cn([C@H]2C[C@H](N=[N+]=[N-])[C@@H](CO)O2)c(=O)[nH]c1=O ; what CC50 at 96 h value has been reported?
> 100 µM
